- Assay Notes: Characterization of lipid nanoparticles encapsulating Fluc-mRNA prepared from different cap structures
- Type: physicochemical
- Condition Context: LNP (YK-009/DSPC/cholesterol/DMG-PEG2000) with Fluc-mRNA transcribed using the named cap analog

Molecule: CO[C@@H]1[C@H](OP(=O)(O)OC[C@H]2O[C@@H](n3cnc4c(=O)[nH]c(N)nc43)[C@H](O)[C@@H]2O)[C@@H](COP(=O)(O)OP(=O)(O)OP(=O)(O)OC[C@H]2O[C@@H]([n+]3cn(C)c4c(=O)[nH]c(N)nc43)[C@H](O)[C@@H]2C(C)NC(C)=O)O[C@H]1n1cnc2c(N)ncnc21 (some centres unmarked)
Particle size, nm: 83.13
//
Molecule: CNc1ncnc2c1ncn2[C@@H]1O[C@H](COP(=O)(O)OP(=O)(O)OP(=O)(O)OC[C@H]2O[C@@H]([n+]3cn(C)c4c(=O)[nH]c(N)nc43)[C@H](O)[C@@H]2O)[C@@H](OP(=O)(O)OC[C@H]2O[C@@H](n3cnc4c(=O)[nH]c(N)nc43)[C@H](O)[C@@H]2O)[C@H]1OC [m6A, reference compound]
Particle size, nm: 75.76
//
Molecule: CO[C@@H]1[C@H](OP(=O)(O)OC[C@H]2O[C@@H](n3cnc4c(=O)[nH]c(N)nc43)[C@H](O)[C@@H]2O)[C@@H](COP(=O)(O)OP(=O)(O)OP(=O)(O)OC[C@H]2O[C@@H](C[n+]3cn(C)c4c(=O)[nH]c(N)nc43)[C@H](O)[C@@H]2O)O[C@H]1n1cnc2c(N)ncnc21
Particle size, nm: 67.24
//
Molecule: CO[C@@H]1[C@H](OP(=O)(O)OC[C@H]2O[C@@H](n3cnc4c(=O)[nH]c(N)nc43)[C@H](O)[C@@H]2O)[C@@H](COP(=O)(O)OP(=O)(O)OP(=O)(O)OC[C@@]2(C(F)F)O[C@@H]([n+]3cn(C)c4c(=O)[nH]c(N)nc43)[C@H](O)[C@@H]2O)O[C@H]1n1cnc2c(N)ncnc21
Particle size, nm: 82.45
//
Molecule: CCO[C@@H]1[C@H](OP(=O)(O)OC[C@H]2O[C@@H](n3cnc4c(=O)[nH]c(N)nc43)[C@H](O)[C@@H]2O)[C@@H](COP(=O)(O)OP(=O)(O)OP(=O)(O)OC[C@H]2O[C@@H]([n+]3cn(C)c4c(=O)[nH]c(N)nc43)[C@H](O)[C@@H]2O)O[C@H]1n1cnc2c(N)ncnc21 [CAP-2′O-ethyl, reference compound]
Particle size, nm: 81.34
//
Molecule: CO[C@@H]1[C@H](OP(=O)(O)OC[C@H]2O[C@@H](n3cnc4c(=O)[nH]c(N)nc43)[C@H](O)[C@@H]2O)[C@@H](COP(=O)(O)OP(=O)(O)OP(=O)(O)OC[C@H]2O[C@@H]([n+]3cn(C)c4c(=O)[nH]c(N)nc43)[C@H](O)[C@]2(C)C#N)O[C@H]1n1cnc2c(N)ncnc21
Particle size, nm: 77.22
//
Molecule: CCN(CC)C(=O)[C@H]1[C@@H](O)[C@H]([n+]2cn(C)c3c(=O)[nH]c(N)nc32)O[C@@H]1COP(=O)(O)OP(=O)(O)OP(=O)(O)OC[C@H]1O[C@@H](n2cnc3c(N)ncnc32)[C@H](OC)[C@@H]1OP(=O)(O)OC[C@H]1O[C@@H](n2cnc3c(=O)[nH]c(N)nc32)[C@H](O)[C@@H]1O
Particle size, nm: 78.33
//
Molecule: CO[C@@H]1[C@H](OP(=O)(O)OC[C@H]2O[C@@H](n3cnc4c(=O)[nH]c(N)nc43)[C@H](O)[C@@H]2O)[C@@H](COP(=O)(O)OP(=O)(O)OP(=O)(O)OC[C@H]2OC([n+]3cn(C)c4c(=O)[nH]c(N)nc43)[C@H](NC(C)=O)[C@@H](O)[C@@H]2O)O[C@H]1n1cnc2c(N)ncnc21 (some centres unmarked)
Particle size, nm: 73.22

###

- Test system: HEK293T cells
- Assay Notes: Translation efficiency of different capped luciferase mRNAs
- Type: cell-based
- Condition Context: relative to m6A
Measured Metric: Multiple of m6A (relative fluorescence intensity)

Compound: CO[C@@H]1[C@H](OP(=O)(O)OC[C@H]2O[C@@H](n3cnc4c(=O)[nH]c(N)nc43)[C@H](O)[C@@H]2O)[C@@H](COP(=O)(O)OP(=O)(O)OP(=O)(O)OC[C@H]2O[C@@H]([n+]3cn(C)c4c(=O)[nH]c(N)nc43)[C@H](O)[C@@H]2C(F)F)O[C@H]1n1cnc2c(N)ncnc21
Value: 5.1
//
Compound: CO[C@@H]1[C@H](OP(=O)(O)OC[C@H]2O[C@@H](n3cnc4c(=O)[nH]c(N)nc43)[C@H](O)[C@@H]2O)[C@@H](COP(=O)(O)OP(=O)(O)OP(=O)(O)OC[C@H]2O[C@@H]([n+]3cn(C)c4c(=O)[nH]c(N)nc43)[C@H](O)[C@]2(C)NC(C)=O)O[C@H]1n1cnc2c(N)ncnc21
Value: 4.0
//
Compound: CO[C@@H]1[C@H](OP(=O)(O)OC[C@H]2O[C@@H](n3cnc4c(=O)[nH]c(N)nc43)[C@H](O)[C@@H]2O)[C@@H](COP(=O)(O)OP(=O)(O)OP(=O)(O)OC[C@@]2(OC)O[C@@H]([n+]3cn(C)c4c(=O)[nH]c(N)nc43)[C@H](O)[C@@H]2O)O[C@H]1n1cnc2c(N)ncnc21 [compound 5227, reference compound]
Value: 2.2

###

- Experimental Target: UniProt P00573
- Sequence (P00573 whole entry): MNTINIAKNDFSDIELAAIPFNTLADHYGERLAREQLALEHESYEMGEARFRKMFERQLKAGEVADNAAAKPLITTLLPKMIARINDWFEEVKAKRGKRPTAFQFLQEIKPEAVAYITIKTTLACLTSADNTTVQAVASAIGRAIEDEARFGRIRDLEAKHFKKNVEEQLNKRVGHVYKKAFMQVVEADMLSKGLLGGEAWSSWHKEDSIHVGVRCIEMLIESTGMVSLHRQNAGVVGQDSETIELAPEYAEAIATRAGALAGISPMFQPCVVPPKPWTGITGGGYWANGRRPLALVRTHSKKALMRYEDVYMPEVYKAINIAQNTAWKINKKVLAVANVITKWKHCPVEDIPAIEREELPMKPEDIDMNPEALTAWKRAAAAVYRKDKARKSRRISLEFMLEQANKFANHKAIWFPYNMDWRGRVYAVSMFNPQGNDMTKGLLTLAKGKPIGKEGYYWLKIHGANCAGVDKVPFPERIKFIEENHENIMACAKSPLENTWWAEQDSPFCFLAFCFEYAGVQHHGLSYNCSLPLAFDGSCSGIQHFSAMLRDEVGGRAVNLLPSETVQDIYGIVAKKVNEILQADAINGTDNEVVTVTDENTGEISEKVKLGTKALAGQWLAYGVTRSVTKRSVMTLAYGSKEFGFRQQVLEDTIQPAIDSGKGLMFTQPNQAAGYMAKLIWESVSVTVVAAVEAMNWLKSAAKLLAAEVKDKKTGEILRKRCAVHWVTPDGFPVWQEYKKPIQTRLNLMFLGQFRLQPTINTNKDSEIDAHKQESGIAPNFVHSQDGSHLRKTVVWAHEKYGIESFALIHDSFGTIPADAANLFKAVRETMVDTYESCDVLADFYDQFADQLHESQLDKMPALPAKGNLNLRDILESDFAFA
- Assay Notes: Capping rate of mRNA transcription initiated by cap analogs (LC-MS)
- Type: biochemical
- Condition Context: relative to 5227
Measured Metric: Increase relative to 5227 (capping rate) (%)

Smiles Repr: COC[C@]1(COP(=O)(O)OP(=O)(O)OP(=O)(O)OC[C@H]2O[C@@H](n3cnc4c(N)ncnc43)[C@H](OC)[C@@H]2OP(=O)(O)OC[C@H]2O[C@@H](n3cnc4c(=O)[nH]c(N)nc43)[C@H](O)[C@@H]2O)O[C@@H]([n+]2cn(C)c3c(=O)[nH]c(N)nc32)[C@H](O)[C@@H]1O
Measured Metric: Increase relative to 5227 (capping rate)
Unit Descriptor: %
Value: 32.3
//
Smiles Repr: CCN(CC)C(=O)[C@H]1[C@@H](O)[C@H]([n+]2cn(C)c3c(=O)[nH]c(N)nc32)O[C@@H]1COP(=O)(O)OP(=O)(O)OP(=O)(O)OC[C@H]1O[C@@H](n2cnc3c(N)ncnc32)[C@H](OC)[C@@H]1OP(=O)(O)OC[C@H]1O[C@@H](n2cnc3c(=O)[nH]c(N)nc32)[C@H](O)[C@@H]1O
Measured Metric: Increase relative to 5227 (capping rate)
Unit Descriptor: %
Value: 36.4

###

- Experimental Target: DCP2 enzyme (Schizosaccharomyces pombe, UniProt O13828)
- Construct: purchased New England Biolabs
- Sequence (O13828 1-243 limits assumed): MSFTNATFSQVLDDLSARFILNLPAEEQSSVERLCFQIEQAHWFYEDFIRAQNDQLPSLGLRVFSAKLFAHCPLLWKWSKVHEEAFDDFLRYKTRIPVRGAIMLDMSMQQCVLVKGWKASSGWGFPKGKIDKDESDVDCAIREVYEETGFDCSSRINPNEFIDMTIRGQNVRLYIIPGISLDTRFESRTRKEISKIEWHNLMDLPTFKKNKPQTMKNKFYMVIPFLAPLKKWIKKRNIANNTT
- Sequence (Q9P805 1-127 partner): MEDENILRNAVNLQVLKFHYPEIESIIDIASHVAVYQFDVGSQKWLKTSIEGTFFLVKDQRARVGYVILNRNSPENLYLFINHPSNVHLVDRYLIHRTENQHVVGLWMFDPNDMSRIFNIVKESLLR
- Sequence (Q10108 155-180 partner limits assumed): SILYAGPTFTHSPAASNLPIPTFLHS
- Assay Notes: Decapping enzyme stability test
- Assay type: biochemical
- Condition Context: relative to N-7113
Measured Metric: Decrease relative to N-7113 (decapping rate) (%)

Molecule: COC[C@H]1[C@@H](O)[C@H]([n+]2cn(C)c3c(=O)[nH]c(N)nc32)O[C@@H]1COP(=O)(O)OP(=O)(O)OP(=O)(O)OC[C@H]1O[C@@H](n2cnc3c(N)ncnc32)[C@H](OC)[C@@H]1OP(=O)(O)OC[C@H]1O[C@@H](n2cnc3c(=O)[nH]c(N)nc32)[C@H](O)[C@@H]1O [HN3002, reference compound]
Value: 20.5

Molecule: COC(C)[C@H]1[C@@H](O)[C@H]([n+]2cn(C)c3c(=O)[nH]c(N)nc32)O[C@@H]1COP(=O)(O)OP(=O)(O)OP(=O)(O)OC[C@H]1O[C@@H](n2cnc3c(N)ncnc32)[C@H](OC)[C@@H]1OP(=O)(O)OC[C@H]1O[C@@H](n2cnc3c(=O)[nH]c(N)nc32)[C@H](O)[C@@H]1O (stereo partly drawn) [YK-CAP-107]
Value: 32.3

Molecule: CO[C@@H]1[C@H](OP(=O)(O)OC[C@H]2O[C@@H](n3cnc4c(=O)[nH]c(N)nc43)[C@H](O)[C@@H]2O)[C@@H](COP(=O)(O)OP(=O)(O)OP(=O)(O)OC[C@H]2O[C@@H]([n+]3cn(C)c4c(=O)[nH]c(N)nc43)[C@H](O)[C@]2(C)C#N)O[C@H]1n1cnc2c(N)ncnc21 [YK-CAP-105]
Value: 9.9
